Molecular target: T1, Recombinant Human CD14/His Protein (B294801) (human, UniProt P08571 20-352, limits assumed)
T1 construct: Bought His-tagged recombinant human CD14; also called recombinant human CD14 antigen; CD14 antigen; not shown: histidine tag
T1 sequence (looked up): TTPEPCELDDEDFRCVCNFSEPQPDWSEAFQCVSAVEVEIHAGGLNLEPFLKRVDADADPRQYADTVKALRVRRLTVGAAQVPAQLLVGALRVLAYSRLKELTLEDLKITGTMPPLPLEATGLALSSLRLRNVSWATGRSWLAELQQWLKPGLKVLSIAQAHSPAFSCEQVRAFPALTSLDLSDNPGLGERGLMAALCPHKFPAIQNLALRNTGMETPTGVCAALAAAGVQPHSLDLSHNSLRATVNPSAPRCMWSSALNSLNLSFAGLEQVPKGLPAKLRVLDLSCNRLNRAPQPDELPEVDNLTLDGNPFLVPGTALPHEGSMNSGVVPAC
Assay: SPR (Biacore 8K), antibody captured on Protein A chip, CD14-His analyte 0.78125-25 nM, 1:1 binding
Below is a list of entries, each paired with its recorded Change Factor (KD relative to mouse antibody D6DD3D001) value.
Please reply with the number alone, leaving off any unit.

Prompt: What Change Factor (KD relative to mouse antibody D6DD3D001) value was documented for this binder, Antibody No. D6DD3D007 (HU1127-hVH1/hVL2) (antibody, human IgG1, kappa, V domains shown, Humanized IgG1 (hFc)) VH: QVQLQESGPGLVKPSQTLSLTCTVSGGSISSDSAWNWIRQHPGKGLEWIGYISYSGSTSYNPSLKSRVTISRDTSKNQFSLKLSSVTAADTAVYYCVRGLRFAYWGQGTLVTVSS VL: DIVLTQSPDSLAVSLGERATINCRASESVDSYVNSFLHWYQQKPGQPPKLLIYRASNLQSGVPDRFSGSGSRTDFTLTISSLQAEDVAVYYCQQSNEDPYTFGQGTKLEIKR ?
Response: 3.34

Prompt: What Change Factor (KD relative to mouse antibody D6DD3D001) value was documented for this binder, Antibody No. D6DD3D012 (HU1127-hVH1/hVL3) (antibody, human IgG1, kappa, V domains shown, Humanized IgG1 (hFc)) VH: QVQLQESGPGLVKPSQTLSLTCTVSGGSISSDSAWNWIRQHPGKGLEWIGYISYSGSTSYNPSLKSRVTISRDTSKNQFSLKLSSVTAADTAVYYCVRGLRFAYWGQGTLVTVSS VL: DIQLTQSPSSLSASVGDRVTITCRASESVDSYVNSFLHWYQQKPGKAPKLLIYRASNLQSGVPSRFSGSGSRTDFTLTISSLQPEDVATYYCQQSNEDPYTFGQGTKLEIKR ?
Response: 3.69

Prompt: What Change Factor (KD relative to mouse antibody D6DD3D001) value was documented for this binder, Antibody No. D6DD3D002 (HU1127-hVH1/hVL1) (antibody, human IgG1, kappa, V domains shown, Humanized IgG1 (hFc)) VH: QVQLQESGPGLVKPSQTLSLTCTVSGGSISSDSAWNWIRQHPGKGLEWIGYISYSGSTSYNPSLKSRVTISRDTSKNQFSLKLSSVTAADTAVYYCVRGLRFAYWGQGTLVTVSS VL: EIVLTQSPATLSLSPGERATLSCRASESVDSYVNSFLHWYQQKPGQAPRLLIYRASNLQSGIPARFSGSGSRTDFTLTISSLEPEDVAVYYCQQSNEDPYTFGQGTKLEIKR ?
Response: 3.57
